Hi there, I'd appreciate the recorded IC50 for every entry that follows.
Tested on: SK-OV-3
Test: Cytotoxicity against human SKOV3 cells by MTT assay
Type: functional, cell-based
Reply numerically in µM, unit not repeated.

Fill blank: measured IC50 of the compound C[C@H](CC[C@@H](C)[C@H]1CC[C@H]2[C@@H]3CC=C4C[C@@H](O)CC[C@]4(C)[C@H]3CC[C@]12C)[C@@H]1C[C@H]1C [PETROSTEROL] is ____.
19.8

Please look up its IC50: C[C@H](CC[C@@H](C)[C@H]1CC[C@H]2[C@@H]3CC(=O)C4=CC(=O)CC[C@]4(C)[C@H]3CC[C@]12C)[C@@H]1C[C@H]1C
16.2

What IC50 value was documented for this compound, CC(CCC(C)C1CCC2C3CC4OC45CC(O)CCC5(C)C3CCC12C)C1CC1C (centres undefined) ?
22.6

Please look up its IC50: O=C1c2c(O)ccc(O)c2C(=O)c2c(NCCNCCO)ccc(NCCNCCO)c21 [MITOXANTRONE]
9.8
